system: SF-539 CNS; assay: NCI-60 one-dose screen, 48 h; conditions: 10 µM
This is part of a sample that, as a whole, favours compounds with a hit. Of some 83,000 tested, about 20% had one in any assay. Calls of active or inactive are those of the source. Rule for the calls: active = growth percent below 10; inactive = the rest. Starred links: 1 amine or outer side, 2 acyl side, 3 side chain; linkers in the order of their positions; H or OH if unused. Positions of bridges follow the written chain, without caps; N, C: chain ends. Non-standard residues stand in square brackets, D forms with d. Residues, ends and D or L forms follow the SMILES beside them. Chains are numbered I, II in the order given. Actinocin(9to1) = Cc1c2oc3c(C)ccc(C(=O)[*:1])c3nc-2c(C(=O)[*:2])c(N)c1=O; aThr = C[C@H](O)[C@H](N)C(=O)O; NMeV = CN[C@H](C(=O)O)C(C)C; Sar = CNCC(=O)O
Returns: one label drawn from active, inactive

Completed entries (count: 3):
compound	system	category.label
CN(C)CCC(=O)c1c[nH]c2ccccc12	SF-539 CNS	inactive
Cc1c2oc3c(C)ccc(C(=O)N[C@@H]4C(=O)N[C@H](C(C)C)C(=O)N5CCC[C@H]5C(=O)N(C)CC(=O)N(C)[C@@H](C(C)C)C(=O)O[C@H]4C)c3nc-2c(C(=O)N[C@@H]2C(=O)N[C@H](C(C)C)C(=O)N3CCC[C@H]3C(=O)N(C)CC(=O)N(C)[C@@H](C(C)C)C(=O)O[C@H]2C)c(N)c1=O (I: [aThr][dV]P[Sar][NMeV] / II: [aThr][dV]P[Sar][NMeV]; ester I:1-I:C, II:1-II:C; linker I:N-II:N via Actinocin(9to1))	SF-539 CNS	active
N#C/C(=C1C=C/C(=N\O)C(Cl)=C\1)c1ccccc1	SF-539 CNS	active

We now examine a further compound.
Per the assay record, what outcome was assigned to Cc1cc(NCCCN(C)C)c2ccc3c(ccc4c(NCCCN(C)C)cc(C)nc43)c2n1 ?
active

---

system: UACC-257 melanoma; assay: NCI-60 one-dose screen, 48 h; conditions: 10 µM
Compounds without any hit were thinned out: in the full panel of roughly 83,000, 20% have a hit. The source made the active and inactive calls. How the source made its calls: active means growth percent below 10; inactive means the rest. Starred links: 1 amine or outer side, 2 acyl side, 3 side chain; linkers in the order of their positions; H or OH if unused. Positions of bridges follow the written chain, without caps; N, C: chain ends. Non-standard residues stand in square brackets, D forms with d. Residues, ends and D or L forms follow the SMILES beside them. Chains are numbered I, II in the order given. Actinocin(9to1) = Cc1c2oc3c(C)ccc(C(=O)[*:1])c3nc-2c(C(=O)[*:2])c(N)c1=O; aThr = C[C@H](O)[C@H](N)C(=O)O; NMeV = CN[C@H](C(=O)O)C(C)C; Sar = CNCC(=O)O
Returns: one label drawn from active, inactive

Completed entries (count: 4):
compound	category.label
Cc1c2oc3c(C)ccc(C(=O)N[C@@H]4C(=O)N[C@H](C(C)C)C(=O)N5CCC[C@H]5C(=O)N(C)CC(=O)N(C)[C@@H](C(C)C)C(=O)O[C@H]4C)c3nc-2c(C(=O)N[C@@H]2C(=O)N[C@H](C(C)C)C(=O)N3CCC[C@H]3C(=O)N(C)CC(=O)N(C)[C@@H](C(C)C)C(=O)O[C@H]2C)c(N)c1=O (I: [aThr][dV]P[Sar][NMeV] / II: [aThr][dV]P[Sar][NMeV]; ester I:1-I:C, II:1-II:C; linker I:N-II:N via Actinocin(9to1))	active
CN1CCN(c2ccc3nc(-c4ccc5nc(-c6ccc(O)cc6)[nH]c5c4)[nH]c3c2)CC1	inactive
CSc1ccc2c(c1)C(N1CCN(C)CC1)Cc1ccccc1S2 (stereo not given)	active
Nc1ccc2cc(Br)c3ccccc3c2c1	inactive

Per the assay record, what outcome was assigned to COc1cc(C(C)(C)C)cc(OC)c1C(O)(c1c(OC)cc(C(C)(C)C)cc1OC)c1c(OC)cc(C(C)(C)C)cc1OC ?
active

Taken from PubChem BioAssay (NCI).
